Organism: Rattus norvegicus
Experiment: Percentage of residual insulin secretion value in the pancreatic islets of rat after treatment with the compound at 10 uM concentration
Type: functional
# Lookup of reported Residual secretion keyed by entry
MEASUREMENT KIND: Residual secretion (%)

>>> measured_number("CC(C)NC(=S)NC1CC(C)(C)Oc2ccc(F)cc21 (centres undefined)")
88.7
>>> measured_number("CCNC(=O)NC1CC(C)(C)Oc2ccc(Cl)cc21 (centres undefined)")
89.5
>>> measured_number("CCNC(=O)NC1CC(C)(C)Oc2ccc(Br)cc21 (centres undefined)")
91.5
>>> measured_number("CC1(C)CC(NC(=O)NS(=O)(=O)c2ccc(Cl)cc2)c2cc(Cl)ccc2O1 (centres undefined)")
89.2
